Values from the supplement of paper PMC3545927

Listing of entries alongside the reported furin cleavage Z-score.
biological target: furin, P09958; assay: furin cleavage Z-score vs untreated control; higher = more cleavage, active = 3.5 or more, inactive = 1 or less, 8 variable residues between constant flanks; details: 15 min;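 also: purified furin at 1:10 enzyme:substrate in 50 mM HEPES pH 7.5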
Sequence (P09958 whole entry): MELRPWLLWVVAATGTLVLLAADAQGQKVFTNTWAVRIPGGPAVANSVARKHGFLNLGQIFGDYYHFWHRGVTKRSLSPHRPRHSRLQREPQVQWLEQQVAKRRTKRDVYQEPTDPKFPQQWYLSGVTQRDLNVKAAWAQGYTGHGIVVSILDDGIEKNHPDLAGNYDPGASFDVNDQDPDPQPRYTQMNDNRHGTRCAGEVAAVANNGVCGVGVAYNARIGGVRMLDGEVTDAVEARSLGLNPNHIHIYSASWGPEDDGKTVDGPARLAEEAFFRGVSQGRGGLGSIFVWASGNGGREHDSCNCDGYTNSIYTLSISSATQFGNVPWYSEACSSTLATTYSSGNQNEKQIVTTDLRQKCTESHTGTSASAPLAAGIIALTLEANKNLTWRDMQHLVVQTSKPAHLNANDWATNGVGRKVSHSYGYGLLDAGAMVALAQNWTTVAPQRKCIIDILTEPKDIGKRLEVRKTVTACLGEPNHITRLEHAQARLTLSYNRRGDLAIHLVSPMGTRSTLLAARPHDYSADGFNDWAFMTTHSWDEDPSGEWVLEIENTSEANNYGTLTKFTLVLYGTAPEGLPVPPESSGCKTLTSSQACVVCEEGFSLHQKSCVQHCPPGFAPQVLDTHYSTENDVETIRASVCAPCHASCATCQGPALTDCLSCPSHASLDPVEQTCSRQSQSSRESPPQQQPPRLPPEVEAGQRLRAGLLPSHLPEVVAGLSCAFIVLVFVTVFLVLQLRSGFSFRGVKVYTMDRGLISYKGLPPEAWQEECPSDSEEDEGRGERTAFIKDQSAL
Some of the results follow. No count for the full screen is at hand.

>  <Sequence Entry>
CARLEREKRAAGNASASA [FS-859]

>  <furin cleavage Z-score>
10 (active)

$$$$
>  <Sequence Entry>
CASTPCSAHQAGNASASA [HC2582]

>  <furin cleavage Z-score>
-1.41 (inactive)

$$$$
>  <Sequence Entry>
CAMEECSHHLAGNASASA [HC1735]

>  <furin cleavage Z-score>
-0.107 (inactive)

$$$$

*Q* Which furin cleavage Z-score value is on record for CARQGRSHHLAGNASASA [FS-2167] ?
*A* 1.01

*Q* How about this sequence: CAASLAGTHGAGNASASA [HC539]
*A* 3.06

*Q* How about this sequence: CALKWRFDRSAGNASASA [FS-1640]
*A* 4.74 (active)

*Q* How about this sequence: CAVVCCSMSKAGNASASA [HC2094]
*A* -0.54 (inactive)

*Q* How about this sequence: CAGGSRWRRSAGNASASA [FS-124]
*A* 5.09 (active)
